Hey, just so you know, these numbers are from patent US10745428B2.

Experiment: Prodrug stability assay in bio-relevant media (FaSSIF with Pancreatin), GI Tract stability
Type: in vitro ADME
Conditions: HPLC peak area of prodrug at 5 h divided by area at 0 h; 0.5 mg/mL Pancreatin in FaSSIF, 37° C.
Would you mind telling me the reported GI Tract stability of each entry?

Solved cases (3 shown):
{"compound": "CC(C)COC(=O)C(C)(C)NP(=O)(CO[C@H](C)Cn1cnc2c(N)ncnc21)N[C@H](C)C(=O)OC1CCC1 (single isomer, unassigned) [Example 20A]", "GI Tract stability": "98.1%"}
{"compound": "CCCCCOC(=O)C(C)(C)NP(=O)(CO[C@H](C)Cn1cnc2c(N)ncnc21)N[C@H](C)C(=O)OC1CCC1 (single isomer, unassigned) [Example 19B]", "GI Tract stability": "49.3%"}
{"compound": "CCCCCCOC(=O)C(C)(C)NP(=O)(CO[C@H](C)Cn1cnc2c(N)ncnc21)N[C@H](C)C(=O)OCC(C)C (single isomer, unassigned) [Example 10B]", "GI Tract stability": "66.8%"}

Record GI Tract stability for all entries; do not skip any.
1. CCCCCOC(=O)C(C)(C)NP(=O)(CO[C@H](C)Cn1cnc2c(N)ncnc21)N[C@H](C)C(=O)OC1CCCC1 (single isomer, unassigned) [Example 24A]
2. CCCOC(=O)C(C)(C)NP(=O)(CO[C@H](C)Cn1cnc2c(N)ncnc21)N[C@H](C)C(=O)OC1CCC1 (single isomer, unassigned) [Example 22A]

97.8%
98.2%

====

Would you mind telling me the reported pIC50 of each entry?
System: HIV-1 (H9/IIIB strain)
Assay: Multiple round HIV-1 infection assay (Viking assay), HIV-1 replication in MT4-GFP cells
Assay type: cell-based
Conditions: Human immunodeficiency virus 1, IIIB, MT4-GFP cells infected with HIV-1 H9/IIIB, 10% normal human serum; read-out: Viking, IC50 (10% NHS)
Answers are plain numbers, as −log10 of the molar value.

Solved cases (2 shown):
{"molecule": "C[C@H](Cn1cnc2c(N)ncnc21)OCP(=O)(N[C@H](C)C(=O)OC1CCCC1)NC(C)(C)C(=O)OC1CCC1 (single isomer, unassigned) [Example 28A]", "testValue": 8.27}
{"molecule": "CCCCOC(=O)C(C)(C)NP(=O)(CO[C@H](C)Cn1cnc2c(N)ncnc21)N[C@H](C)C(=O)OC1CCC1 (single isomer, unassigned) [Example 23A]", "testValue": 8.17}

Look at this molecule and give its reported pIC50. CC(C)OC(=O)C(C)(C)NP(=O)(CO[C@H](C)Cn1cnc2c(N)ncnc21)N[C@H](C)C(=O)OC1CCC1 (single isomer, unassigned) [Example 18A]
7.70

====

Assay: Prodrug stability assay in bio-relevant media (FaSSIF with Pancreatin), GI Tract stability
Format: in vitro ADME
Details: HPLC peak area of prodrug at 5 h divided by area at 0 h; 0.5 mg/mL Pancreatin in FaSSIF, 37° C.
Binary call on GI Tract stability with cut-off 90%: strictly below means 1, and equality or higher means 0.

Decide: GI Tract stability of CCCCCOC(=O)C(C)(C)NP(=O)(CO[C@H](C)Cn1cnc2c(N)ncnc21)N[C@H](C)C(=O)OCCCC (single isomer, unassigned) [Example 9B] strictly below 90%?
1

Decide: GI Tract stability of CCCCCCOC(=O)C(C)(C)NP(=O)(CO[C@H](C)Cn1cnc2c(N)ncnc21)N[C@H](C)C(=O)OC1CCCC1 (single isomer, unassigned) [Example 14B] strictly below 90%?
1

Decide: GI Tract stability of CC(C)OC(=O)C(C)(C)NP(=O)(CO[C@H](C)Cn1cnc2c(N)ncnc21)N[C@H](C)C(=O)OC1CCC1 (single isomer, unassigned) [Example 18B] strictly below 90%?
0

Decide: GI Tract stability of CCCCCCOC(=O)C(C)(C)NP(=O)(CO[C@H](C)Cn1cnc2c(N)ncnc21)N[C@H](C)C(=O)OC(C)C (single isomer, unassigned) [Example 2A] strictly below 90%?
0

Decide: GI Tract stability of CCCCCCOC(=O)C(C)(C)NP(=O)(CO[C@H](C)Cn1cnc2c(N)ncnc21)N[C@H](C)C(=O)OC(C)C (single isomer, unassigned) [Example 2B] strictly below 90%?
0

Decide: GI Tract stability of CCCOC(=O)C(C)(C)NP(=O)(CO[C@H](C)Cn1cnc2c(N)ncnc21)N[C@H](C)C(=O)OC1CCC1 (single isomer, unassigned) [Example 22B] strictly below 90%?
1

Decide: GI Tract stability of CCCCCCOC(=O)C(C)(C)NP(=O)(CO[C@H](C)Cn1cnc2c(N)ncnc21)N[C@H](C)C(=O)OC1CCCCC1 (single isomer, unassigned) [Example 15B] strictly below 90%?
1

Decide: GI Tract stability of CC(C)COC(=O)C(C)(C)NP(=O)(CO[C@H](C)Cn1cnc2c(N)ncnc21)N[C@H](C)C(=O)OC1CCC1 (single isomer, unassigned) [Example 20B] strictly below 90%?
1

Decide: GI Tract stability of CCCCCCOC(=O)[C@@H](C)NP(=O)(CO[C@H](C)Cn1cnc2c(N)ncnc21)NC(C)(C)C(=O)OCCCCCC (single isomer, unassigned) [Example 13B] strictly below 90%?
1

Decide: GI Tract stability of CCCCCOC(=O)C(C)(C)NP(=O)(CO[C@H](C)Cn1cnc2c(N)ncnc21)N[C@H](C)C(=O)OC(C)C (single isomer, unassigned) [Example 17B] strictly below 90%?
0
